Reference source: patent KR20130126543A

Molecular target: T1, IL-6R-Fc 항원 (human, UniProt P08887 20-365, limits assumed)
T1 construct: domain: IL-6R full domain; Made in-house as IL-6R-Fc; also called IL-6R full; IL-6R full domain인 단백질; not shown: Fc part (vector pYK 604)
T1 sequence (looked up): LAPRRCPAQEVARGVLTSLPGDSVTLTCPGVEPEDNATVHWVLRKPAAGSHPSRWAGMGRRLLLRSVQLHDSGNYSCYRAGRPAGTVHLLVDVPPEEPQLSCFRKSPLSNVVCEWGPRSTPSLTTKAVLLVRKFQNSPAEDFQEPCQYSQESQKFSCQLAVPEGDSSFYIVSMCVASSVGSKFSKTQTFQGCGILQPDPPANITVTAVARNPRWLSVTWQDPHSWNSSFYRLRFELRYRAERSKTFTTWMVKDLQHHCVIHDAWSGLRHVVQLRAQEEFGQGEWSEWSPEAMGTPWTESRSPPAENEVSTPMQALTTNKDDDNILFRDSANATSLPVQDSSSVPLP
Assay: ELISA; IL-6R coated 100 ng/well; IgG at 1.5625 nM; anti-Fab-HRP
Quick reference for OD 490 nm among some binders
Numeric answer only, unit OD490 assumed.

Recorded result, 항 IL-6R 단클론 항체 A7 (antibody, V domains shown) VH: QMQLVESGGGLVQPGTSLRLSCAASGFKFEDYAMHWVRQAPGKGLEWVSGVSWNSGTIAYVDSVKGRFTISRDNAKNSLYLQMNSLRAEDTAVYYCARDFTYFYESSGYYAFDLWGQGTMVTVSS VL: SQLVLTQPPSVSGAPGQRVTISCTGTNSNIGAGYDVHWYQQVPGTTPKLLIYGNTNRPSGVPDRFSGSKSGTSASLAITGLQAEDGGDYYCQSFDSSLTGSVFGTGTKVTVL , OD 490 nm: 1.17

Recorded result, 항 IL-6R 단클론 항체 B10 (antibody, V domains shown) VH: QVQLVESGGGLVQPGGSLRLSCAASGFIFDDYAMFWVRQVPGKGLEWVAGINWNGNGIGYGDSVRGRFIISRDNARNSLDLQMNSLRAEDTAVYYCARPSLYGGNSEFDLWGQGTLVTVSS VL: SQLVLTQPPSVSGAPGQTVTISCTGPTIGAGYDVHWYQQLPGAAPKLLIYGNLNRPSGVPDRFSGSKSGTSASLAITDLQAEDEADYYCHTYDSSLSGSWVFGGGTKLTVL , OD 490 nm: 0.607

Recorded result, 항 IL-6R 단클론 항체 D2 (antibody, V domains shown) VH: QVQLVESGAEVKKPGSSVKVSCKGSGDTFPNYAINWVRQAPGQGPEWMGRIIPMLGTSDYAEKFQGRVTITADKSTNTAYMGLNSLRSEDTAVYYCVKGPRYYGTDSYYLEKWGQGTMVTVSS VL: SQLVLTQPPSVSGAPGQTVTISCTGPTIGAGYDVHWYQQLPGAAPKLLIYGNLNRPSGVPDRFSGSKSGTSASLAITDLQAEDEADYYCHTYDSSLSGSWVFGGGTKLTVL , OD 490 nm: 0.584

More entries:
Recorded result, 항 IL-6R 단클론 항체 F2 (antibody, V domains shown) VH: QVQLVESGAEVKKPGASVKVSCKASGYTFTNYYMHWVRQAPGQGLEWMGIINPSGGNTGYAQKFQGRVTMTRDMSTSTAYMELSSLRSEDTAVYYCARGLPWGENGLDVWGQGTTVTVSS VL: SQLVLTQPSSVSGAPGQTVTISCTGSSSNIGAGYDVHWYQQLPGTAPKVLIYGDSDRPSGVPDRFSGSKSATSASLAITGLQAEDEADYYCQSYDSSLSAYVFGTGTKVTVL , OD 490 nm: 2.43
